# TARGET: T1, Recombinant Human DLL4 (R&D Systems Cat#1506-D4/CF) (human, UniProt Q9NR61 27-524)
# T1 construct: Bought recombinant protein; also called delta-like protein 4; rHuman DLL4
# METHOD_DESCRIPTION: ECL multispot (MSD) assay; antigen spotted on plate, Fab in solution;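 further: purified Fab incubated 1 hour at 20 °C in 1% BSA TBST on antigen-coated wells, detected with TAG antibody, ECL read on Sector Imager 2400, compared to each well's blank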
OBSERVATION_TYPE: ECL signal (ECL signal)
Write the number in ECL signal without appending the unit.

The following binders have reported results that may help.
BINDER	ECL signal (ECL signal)
Fab VH1-46_IGHD6-6*01_IGHJ1*01 S102A/S103P/S104F (APF) & L6_IGKJ1*01 S30T (Fab, V domains shown, Tested as Fab made in E. coli; The heavy chain vector (Plasmid A) adds CH1 with His and Flag tags, the kappa vector (Plasmid C) adds CL kappa; also called APF / S30T) VH: QVQLVQSGAEVKKPGASVKVSCKASGYTFTSYYMHWVRQAPGQGLEWMGIINPSGGSTSYAQKFQGRVTMTRDTSTSTVYMELSSLRSEDTAVYYCAREEYAPFSAEYFQHWGQGTLVTVSS VL: EIVLTQSPATLSLSPGERATLSCRASQSVTSYLAWYQQKPGQAPRLLIYDASNRATGIPARFSGSGSGTDFTLTISSLEPEDFAVYYCQQRSNWPPWTFGQGTKVEIKR	1020
Fab VH1-46_IGHD6-6*01_IGHJ1*01 S102A/S103P/S104F (APF) & L6_IGKJ1*01 S30L (Fab, V domains shown, Tested as Fab made in E. coli; The heavy chain vector (Plasmid A) adds CH1 with His and Flag tags, the kappa vector (Plasmid C) adds CL kappa; also called APF / S30L) VH: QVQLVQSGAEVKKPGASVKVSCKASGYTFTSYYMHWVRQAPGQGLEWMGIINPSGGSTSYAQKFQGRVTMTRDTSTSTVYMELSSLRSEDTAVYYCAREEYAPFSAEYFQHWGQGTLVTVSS VL: EIVLTQSPATLSLSPGERATLSCRASQSVLSYLAWYQQKPGQAPRLLIYDASNRATGIPARFSGSGSGTDFTLTISSLEPEDFAVYYCQQRSNWPPWTFGQGTKVEIKR	1630
Fab VH1-46_IGHD6-6*01_IGHJ1*01 S102A/S103P/S104F (APF) & L6_IGKJ1*01 S30R (Fab, V domains shown, Tested as Fab made in E. coli; The heavy chain vector (Plasmid A) adds CH1 with His and Flag tags, the kappa vector (Plasmid C) adds CL kappa; also called APF / S30R) VH: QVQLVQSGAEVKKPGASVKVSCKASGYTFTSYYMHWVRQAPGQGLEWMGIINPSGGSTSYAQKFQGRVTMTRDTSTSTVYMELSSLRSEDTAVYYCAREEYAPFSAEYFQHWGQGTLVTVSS VL: EIVLTQSPATLSLSPGERATLSCRASQSVRSYLAWYQQKPGQAPRLLIYDASNRATGIPARFSGSGSGTDFTLTISSLEPEDFAVYYCQQRSNWPPWTFGQGTKVEIKR	745

Attention now turns to another entry.
query: Please give the measured ECL signal for this binder: Fab VH1-46_IGHD6-6*01_IGHJ1*01 S102A/S103P/S104F (APF) & L6_IGKJ1*01 S30W (Fab, V domains shown, Tested as Fab made in E. coli; The heavy chain vector (Plasmid A) adds CH1 with His and Flag tags, the kappa vector (Plasmid C) adds CL kappa; also called APF / S30W) VH: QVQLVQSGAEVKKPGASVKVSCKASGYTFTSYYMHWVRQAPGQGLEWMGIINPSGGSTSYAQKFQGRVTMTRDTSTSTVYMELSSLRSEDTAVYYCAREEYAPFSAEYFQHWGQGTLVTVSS VL: EIVLTQSPATLSLSPGERATLSCRASQSVWSYLAWYQQKPGQAPRLLIYDASNRATGIPARFSGSGSGTDFTLTISSLEPEDFAVYYCQQRSNWPPWTFGQGTKVEIKR
result: 791
